Taken from patent US5780605A.

What MIC (minimum inhibitory concentration) was measured for each of the following?
system: Enterococcus faecium ATCC 8043; assay: in vitro antibacterial activity (MIC), BHI agar dilution; format: cell-based; conditions: E. faecium ATCC 8043, 35-37° C., 20 to 24 hours
Numbers only.

Record excerpt, results attached:
INSERT INTO measurements (compound, assay_readout, measurement) VALUES
  ('CC[C@H]1OC(=O)[C@H](C)[C@@H](O[C@H]2C[C@@](C)(OC)[C@@H](O)[C@H](C)O2)[C@H](C)[C@@H](O[C@@H]2O[C@H](C)C[C@H](N(C)C)[C@H]2O)[C@@]2(C)C[C@@H](C)C(=NOCO2)[C@H](C)[C@H]2OC(=O)O[C@@]21C', 'MIC (minimum inhibitory concentration)', 0.1),
  ('CC[C@H]1OC(=O)[C@H](C)[C@@H](O[C@H]2C[C@@](C)(OC)[C@@H](O)[C@H](C)O2)[C@H](C)[C@@H](O[C@@H]2O[C@H](C)C[C@H](N(C)C)[C@H]2O)[C@](C)(O)C[C@@H](C)C(=O)[C@H](C)[C@@H](O)[C@]1(C)O [Ery. A, Erythromycin A, reference compound]', 'MIC (minimum inhibitory concentration)', 0.05),
  ('CC[C@H]1OC(=O)[C@H](C)C(=O)[C@H](C)[C@@H](O[C@@H]2O[C@H](C)C[C@H](N(C)C)[C@H]2O)[C@@]2(C)C[C@@H](C)C(=NOCO2)[C@H](C)[C@H]2OC(=O)O[C@@]21C', 'MIC (minimum inhibitory concentration)', 0.78);

Let us move to another entry and its MIC (minimum inhibitory concentration).
Ask: Entry `CC[C@H]1OC(=O)[C@H](C)[C@@H](O[C@H]2C[C@@](C)(OC)[C@@H](O)[C@H](C)O2)[C@H](C)[C@@H](O[C@@H]2O[C@H](C)C[C@H](N(C)C)[C@H]2O)[C@@]2(C)C[C@@H](C)C(=NOCO2)[C@H](C)[C@@H](O)[C@]1(C)O` , system Enterococcus faecium ATCC 8043: what MIC (minimum inhibitory concentration) was measured?
Reply: 1.56

====

Exercise: for every item that follows, state its recorded MIC (minimum inhibitory concentration).
test system: Streptococcus Pheumoniae ATCC6303; assay: in vitro antibacterial activity (MIC), BHI agar dilution; type: cell-based; settings: 35-37° C., 20 to 24 hours
Numbers only.

Record excerpt, results attached:
INSERT INTO assay_data (molecule, measurement) VALUES
  ('CC[C@H]1OC(=O)[C@H](C)C(=O)[C@H](C)[C@@H](O[C@@H]2O[C@H](C)C[C@H](N(C)C)[C@H]2O)[C@@]2(C)C[C@@H](C)C(=NOCO2)[C@H](C)[C@H]2OC(=O)O[C@@]21C [Example 3]', 1),
  ('CC[C@H]1OC(=O)[C@H](C)[C@@H](O[C@H]2C[C@@](C)(OC)[C@@H](O)[C@H](C)O2)[C@H](C)[C@@H](O[C@@H]2O[C@H](C)C[C@H](N(C)C)[C@H]2O)[C@](C)(O)C[C@@H](C)C(=O)[C@H](C)[C@@H](O)[C@]1(C)O [Ery. A, Erythromycin A, reference compound]', 0.06),
  ('CC[C@H]1OC(=O)[C@H](C)[C@@H](O[C@H]2C[C@@](C)(OC)[C@@H](O)[C@H](C)O2)[C@H](C)[C@@H](O[C@@H]2O[C@H](C)C[C@H](N(C)C)[C@H]2O)[C@@]2(C)C[C@@H](C)C(=NOCO2)[C@H](C)[C@H]2OC(=O)O[C@@]21C [Example 2]', 0.06);

Switching to the query record.
Ask: Would you kindly share the measured MIC (minimum inhibitory concentration) for CC[C@H]1OC(=O)[C@H](C)[C@@H](O[C@H]2C[C@@](C)(OC)[C@@H](O)[C@H](C)O2)[C@H](C)[C@@H](O[C@@H]2O[C@H](C)C[C@H](N(C)C)[C@H]2O)[C@@]2(C)C[C@@H](C)C(=NOCO2)[C@H](C)[C@@H](O)[C@]1(C)O [Example 1] ?
Reply: 1
